- MEASUREMENT_NOTES: Cytotoxicity against human GES-1 cells assessed as reduction in cell viability after 24 hrs by MTT assay
- Format: cell-based, GES1
- CONDITION_PARAMETERS: GES-1 cells
Can you tell me CC50 at 24 h for the items I'm about to list?
Answers are plain numbers, in µM.

Here are 4 compounds together with their reported answers.
# STRUCTURE_SMILES_STRING, CC50 at 24 h, µM
records = [
    ("O=c1[nH]cc(S(=O)(=O)Nc2cccc(-c3cn(-c4ccccc4Cl)nn3)c2)c(=O)[nH]1", 14),
    ("Cc1cccc(-n2cc(-c3cccc(NS(=O)(=O)c4c[nH]c(=O)[nH]c4=O)c3)nn2)c1", 18.5),
    ("Cc1ccc(-n2cc(-c3cccc(NS(=O)(=O)c4c[nH]c(=O)[nH]c4=O)c3)nn2)cc1", 15.8),
    ("Cc1cccc(-n2cc(-c3ccc(NS(=O)(=O)c4c[nH]c(=O)[nH]c4=O)cc3)nn2)c1", 28.3),
]

Please find the next compound below.
Query :: Which CC50 at 24 h value is on record for `O=c1[nH]cc(S(=O)(=O)Nc2cccc(-c3cn(-c4ccc(Cl)cc4)nn3)c2)c(=O)[nH]1` ?
Result :: 11.3
